Where these numbers come from: ChEMBL document CHEMBL5715260

- target-entity: Histone acetyltransferase p300 (Homo sapiens, UniProt Q09472)
- Sequence (Q09472 whole entry): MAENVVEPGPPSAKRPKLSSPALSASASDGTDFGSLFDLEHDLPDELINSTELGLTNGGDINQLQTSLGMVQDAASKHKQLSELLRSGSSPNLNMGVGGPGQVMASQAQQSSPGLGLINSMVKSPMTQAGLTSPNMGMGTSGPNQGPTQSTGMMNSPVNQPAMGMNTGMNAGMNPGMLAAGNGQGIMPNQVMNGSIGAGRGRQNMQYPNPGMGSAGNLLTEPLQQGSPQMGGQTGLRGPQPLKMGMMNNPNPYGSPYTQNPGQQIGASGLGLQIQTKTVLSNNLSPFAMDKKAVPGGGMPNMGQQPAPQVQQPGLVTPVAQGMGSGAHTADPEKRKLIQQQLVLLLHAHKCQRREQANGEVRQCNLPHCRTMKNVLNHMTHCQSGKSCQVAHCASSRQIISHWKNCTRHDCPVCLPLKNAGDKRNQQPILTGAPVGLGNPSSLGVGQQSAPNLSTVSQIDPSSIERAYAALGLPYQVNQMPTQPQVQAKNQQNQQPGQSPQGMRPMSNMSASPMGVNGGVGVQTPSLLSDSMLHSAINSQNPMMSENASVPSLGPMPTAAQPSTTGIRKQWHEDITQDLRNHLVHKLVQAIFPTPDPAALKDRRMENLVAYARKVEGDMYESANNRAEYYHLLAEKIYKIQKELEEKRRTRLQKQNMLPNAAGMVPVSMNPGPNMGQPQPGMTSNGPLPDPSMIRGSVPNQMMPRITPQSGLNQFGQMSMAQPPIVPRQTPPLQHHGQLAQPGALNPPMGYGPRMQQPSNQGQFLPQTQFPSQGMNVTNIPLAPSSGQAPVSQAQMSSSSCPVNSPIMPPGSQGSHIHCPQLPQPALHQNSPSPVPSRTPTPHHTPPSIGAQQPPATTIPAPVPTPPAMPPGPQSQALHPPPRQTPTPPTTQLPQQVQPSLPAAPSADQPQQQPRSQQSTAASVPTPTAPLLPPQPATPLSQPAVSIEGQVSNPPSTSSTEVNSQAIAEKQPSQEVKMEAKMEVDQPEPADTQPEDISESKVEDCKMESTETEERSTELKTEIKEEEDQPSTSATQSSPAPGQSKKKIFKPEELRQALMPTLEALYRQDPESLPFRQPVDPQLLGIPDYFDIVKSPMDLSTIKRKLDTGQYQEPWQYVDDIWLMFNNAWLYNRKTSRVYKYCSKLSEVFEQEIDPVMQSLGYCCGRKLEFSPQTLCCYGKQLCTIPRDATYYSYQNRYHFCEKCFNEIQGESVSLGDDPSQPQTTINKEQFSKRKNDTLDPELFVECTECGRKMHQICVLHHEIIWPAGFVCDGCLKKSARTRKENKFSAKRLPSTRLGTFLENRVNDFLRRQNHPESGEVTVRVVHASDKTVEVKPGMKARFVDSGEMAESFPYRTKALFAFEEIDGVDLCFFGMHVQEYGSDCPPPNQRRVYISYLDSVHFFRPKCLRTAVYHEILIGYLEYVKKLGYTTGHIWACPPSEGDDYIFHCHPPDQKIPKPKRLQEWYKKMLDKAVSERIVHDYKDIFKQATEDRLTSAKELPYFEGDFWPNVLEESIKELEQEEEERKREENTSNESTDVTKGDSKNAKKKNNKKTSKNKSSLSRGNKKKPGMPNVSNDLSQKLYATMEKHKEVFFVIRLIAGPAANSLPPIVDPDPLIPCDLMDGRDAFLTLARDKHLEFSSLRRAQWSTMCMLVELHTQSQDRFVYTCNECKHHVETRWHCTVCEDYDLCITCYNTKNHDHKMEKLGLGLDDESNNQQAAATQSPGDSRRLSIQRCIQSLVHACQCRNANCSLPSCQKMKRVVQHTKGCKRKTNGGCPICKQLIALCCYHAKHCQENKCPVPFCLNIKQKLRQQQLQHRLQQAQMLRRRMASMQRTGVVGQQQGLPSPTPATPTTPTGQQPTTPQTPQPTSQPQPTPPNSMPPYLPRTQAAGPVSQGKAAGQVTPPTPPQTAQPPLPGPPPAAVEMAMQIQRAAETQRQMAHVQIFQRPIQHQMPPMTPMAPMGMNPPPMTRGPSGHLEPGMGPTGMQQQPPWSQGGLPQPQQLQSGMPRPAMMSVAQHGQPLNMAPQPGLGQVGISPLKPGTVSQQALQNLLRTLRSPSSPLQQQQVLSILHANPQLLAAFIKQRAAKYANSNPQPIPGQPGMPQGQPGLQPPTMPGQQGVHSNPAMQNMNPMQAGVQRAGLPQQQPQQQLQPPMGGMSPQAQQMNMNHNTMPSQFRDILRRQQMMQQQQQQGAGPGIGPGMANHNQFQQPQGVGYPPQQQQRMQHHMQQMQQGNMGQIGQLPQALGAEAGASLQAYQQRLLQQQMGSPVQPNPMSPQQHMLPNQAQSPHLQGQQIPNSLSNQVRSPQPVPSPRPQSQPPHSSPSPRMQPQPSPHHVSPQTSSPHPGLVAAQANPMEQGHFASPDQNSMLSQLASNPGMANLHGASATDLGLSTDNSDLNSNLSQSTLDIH
- experiment: Selectivity interaction (BROMOscan (DiscoverX)) EUB0002298a EP300
- Design: recommended concentration 1 uM
pIC50: −log10 of the molar value.
readout-kind: pIC50

- CCCOc1ccc(CCc2nc3cc(-c4c(C)noc4C)ccc3n2CCN2CCOCC2)cc1: 6.44

---

- target-entity: Lysine-specific histone demethylase 2 (Homo sapiens, UniProt Q8NB78)
- experiment: Selectivity interaction (Proteomics) EUB0000269cCl KDM1B/LSD2
readout-kind: IC50

• Cc1cc(CN)cc(C)c1-c1ncn(C)c1-c1ccnc2cc(F)ccc12 = > 100 µM

---

- target-entity: Caspase-5 (Homo sapiens, UniProt P51878)
- Sequence (P51878 137-327 limits assumed): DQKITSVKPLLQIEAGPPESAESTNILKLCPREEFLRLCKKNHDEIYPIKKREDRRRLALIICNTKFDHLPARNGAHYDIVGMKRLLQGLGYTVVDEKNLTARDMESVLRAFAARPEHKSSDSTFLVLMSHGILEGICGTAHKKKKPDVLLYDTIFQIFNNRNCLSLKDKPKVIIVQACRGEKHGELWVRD
- Sequence (P51878 347-434 limits assumed): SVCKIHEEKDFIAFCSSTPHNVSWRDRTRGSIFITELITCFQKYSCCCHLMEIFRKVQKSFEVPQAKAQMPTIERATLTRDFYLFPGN
- experiment: Selectivity interaction (Enzymatic assay) EUB0002176a CASP5
- Set-up: recommended concentration 1 uM
Where a SMILES comes first, the peptide text is derived from it. The star is where a group is joined. CH2Cl = ClC*
readout-kind: IC50 (nM)

• CC(=O)N[C@@H](Cc1ccccc1)C(=O)N[C@@H](CC(C)C)C(=O)N[C@H](C(=O)N[C@@H](CC(=O)O)C(=O)CCl)[C@@H](C)O (Ac-FLTD-CH2Cl) = 329

---

- target-entity: Caspase-9 (Homo sapiens, UniProt P55211)
- experiment: Selectivity interaction (Enzymatic assay) EUB0002178aAD CASP9
- Design: recommended concentration 1 uM
pIC50: −log10 of the molar value. Where a SMILES comes first, the peptide text is derived from it.
readout-kind: pIC50

- CC[C@H](C)[C@H](NC(=O)[C@H](CCC(=O)O)NC(=O)[C@@H](NC(C)=O)C(C)C)C(=O)N[C@H](C=O)CC(=O)O (Ac-VEID-aldehyde): 8.70

---

- target-entity: Poly [ADP-ribose] polymerase 1 (Homo sapiens, UniProt P09874)
- Sequence (P09874 whole entry): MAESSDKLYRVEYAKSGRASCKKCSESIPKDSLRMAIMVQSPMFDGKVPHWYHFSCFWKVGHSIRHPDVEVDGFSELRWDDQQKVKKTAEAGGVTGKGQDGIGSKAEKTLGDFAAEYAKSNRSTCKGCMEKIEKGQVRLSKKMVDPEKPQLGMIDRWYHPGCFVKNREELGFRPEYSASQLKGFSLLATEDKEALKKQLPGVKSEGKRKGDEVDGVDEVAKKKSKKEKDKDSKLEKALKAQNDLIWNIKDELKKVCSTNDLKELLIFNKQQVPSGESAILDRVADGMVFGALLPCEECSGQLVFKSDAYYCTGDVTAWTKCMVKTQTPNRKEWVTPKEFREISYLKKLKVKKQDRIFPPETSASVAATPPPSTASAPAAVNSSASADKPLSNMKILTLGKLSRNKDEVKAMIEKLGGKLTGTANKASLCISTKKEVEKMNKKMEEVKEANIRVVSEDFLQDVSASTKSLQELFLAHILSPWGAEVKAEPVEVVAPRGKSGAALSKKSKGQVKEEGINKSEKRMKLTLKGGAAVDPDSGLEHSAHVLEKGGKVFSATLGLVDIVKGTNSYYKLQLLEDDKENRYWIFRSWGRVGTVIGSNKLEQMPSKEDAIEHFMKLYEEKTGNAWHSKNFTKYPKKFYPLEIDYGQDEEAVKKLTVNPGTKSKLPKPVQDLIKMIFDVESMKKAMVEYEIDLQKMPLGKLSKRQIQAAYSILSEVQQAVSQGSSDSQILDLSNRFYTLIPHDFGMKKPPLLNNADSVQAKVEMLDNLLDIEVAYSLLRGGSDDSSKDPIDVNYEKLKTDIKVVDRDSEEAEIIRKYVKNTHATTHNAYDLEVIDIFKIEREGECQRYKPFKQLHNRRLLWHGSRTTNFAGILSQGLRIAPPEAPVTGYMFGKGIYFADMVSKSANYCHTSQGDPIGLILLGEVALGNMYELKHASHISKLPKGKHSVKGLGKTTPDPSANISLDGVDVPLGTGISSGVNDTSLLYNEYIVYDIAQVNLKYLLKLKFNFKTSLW
- experiment: Selectivity interaction (Enzymatic assay) EUB0002249a PARP1
readout-kind: IC50

- NC(=O)c1cccc(NC(=O)CCC(=O)NCCc2cn(CCNS(=O)(=O)c3cccc(C(=O)O)c3)nn2)c1: 11.7 µM

---

- target-entity: Mu-type opioid receptor (Homo sapiens, UniProt P35372)
- Sequence (P35372 whole entry): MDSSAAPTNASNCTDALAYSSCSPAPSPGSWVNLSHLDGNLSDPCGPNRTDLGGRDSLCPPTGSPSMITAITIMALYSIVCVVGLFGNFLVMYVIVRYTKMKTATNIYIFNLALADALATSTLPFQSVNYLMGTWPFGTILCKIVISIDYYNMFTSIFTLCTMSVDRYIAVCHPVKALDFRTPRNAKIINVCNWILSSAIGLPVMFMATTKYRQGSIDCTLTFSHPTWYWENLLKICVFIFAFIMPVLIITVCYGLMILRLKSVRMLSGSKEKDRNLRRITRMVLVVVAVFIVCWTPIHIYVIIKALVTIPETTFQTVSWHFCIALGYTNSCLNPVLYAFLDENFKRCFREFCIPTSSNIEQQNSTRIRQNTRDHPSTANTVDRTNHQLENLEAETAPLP
- experiment: Selectivity interaction (Panel of neurotransmitter receptors, receptors, ion channels/regulatory sites) EUB0002781aCl OPRM1
- Set-up: recommended concentration 1 uM
readout-kind: Ki (nM)

• N=C(N)NC(=O)c1cnn(-c2cccc3ncccc23)c1C1CC1 = 213

---

- target-entity: Histone-lysine N-methyltransferase 2A (Homo sapiens)
- experiment: Selectivity interaction (Enzymatic assay) EUB0002166aAD MLL
- Design: recommended concentration 1 uM
pIC50: −log10 of the molar value.
readout-kind: pIC50

* Cc1nc(F)ccc1-c1cc(Cn2ccn(C)c2=N)cc(C(=O)NCc2ccc(Cl)c(Cl)c2)c1 | 7.70

---

- target-entity: Caspase-8 (Homo sapiens, UniProt Q14790)
- Sequence (Q14790 217-374 limits assumed): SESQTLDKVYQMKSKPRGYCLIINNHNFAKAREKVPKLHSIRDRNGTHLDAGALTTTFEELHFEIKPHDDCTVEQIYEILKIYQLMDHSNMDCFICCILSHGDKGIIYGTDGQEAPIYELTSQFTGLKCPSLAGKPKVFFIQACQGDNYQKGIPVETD
- Sequence (Q14790 385-479 limits assumed): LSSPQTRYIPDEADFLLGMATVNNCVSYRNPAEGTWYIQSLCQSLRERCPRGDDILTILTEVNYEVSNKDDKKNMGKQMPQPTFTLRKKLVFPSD
- experiment: Selectivity interaction (Eurofins (enzymatic assay)) EUB0002201a CASP8
- Design: recommended concentration 1 uM
Where a SMILES comes first, the peptide text is derived from it.
readout-kind: IC50

- CC(=O)N[C@@H](CC(C)C)C(=O)N[C@@H](CCC(=O)O)C(=O)N[C@H](C(=O)N[C@H](C=O)CC(=O)O)C(C)C (Ac-LEVD-aldehyde): 3.3 nM

---

- target-entity: Bromodomain-containing protein 9 (Homo sapiens, UniProt Q9H8M2)
- experiment: Selectivity interaction (Bromodomain panel) EUB0000233b BRD9
- Set-up: recommended concentration 1 uM
readout-kind: IC50

- CN(C)CCCOc1ccc(-c2cc(NCCCn3cccn3)nc(S(C)(=O)=O)n2)cc1: 1400 nM

---

- target-entity: Caspase-5 (Homo sapiens)
- experiment: Selectivity interaction (Enzymatic assay) EUB0002176a CASP5
- Design: recommended concentration 1 uM
pIC50: −log10 of the molar value. Where a SMILES comes first, the peptide text is derived from it. The star is where a group is joined. CH2Cl = ClC*
readout-kind: pIC50

* CC(=O)N[C@@H](Cc1ccccc1)C(=O)N[C@@H](CC(C)C)C(=O)N[C@H](C(=O)N[C@@H](CC(=O)O)C(=O)CCl)[C@@H](C)O (Ac-FLTD-CH2Cl) | 6.48

---

- target-entity: Transcription initiation factor TFIID subunit 1 (Homo sapiens)
- experiment: Selectivity interaction (BROMOscan (Eurofins)) EUB0002282a TAF1
pKd: −log10 of the molar value.
readout-kind: pKd

• Cc1cc(-c2ccc3nc(C4CCOCC4)n(CCOC(F)(F)F)c3c2)cn(C)c1=O = 6.96

---

- target-entity: Caspase-4 (Homo sapiens, UniProt P49662)
- Sequence (P49662 whole entry): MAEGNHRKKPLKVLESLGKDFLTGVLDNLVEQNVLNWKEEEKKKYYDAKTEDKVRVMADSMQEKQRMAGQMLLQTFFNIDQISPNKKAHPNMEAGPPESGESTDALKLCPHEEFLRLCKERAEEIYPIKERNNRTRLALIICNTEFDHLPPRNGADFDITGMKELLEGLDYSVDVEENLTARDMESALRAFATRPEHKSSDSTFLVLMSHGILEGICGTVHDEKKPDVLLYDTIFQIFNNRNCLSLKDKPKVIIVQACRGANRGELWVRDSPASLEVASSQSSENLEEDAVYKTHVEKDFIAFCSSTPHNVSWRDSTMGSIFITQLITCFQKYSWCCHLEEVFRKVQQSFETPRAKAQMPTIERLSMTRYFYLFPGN
- experiment: Selectivity interaction (Enzymatic assay) EUB0002198aAD CASP4
- Design: recommended concentration 1 uM
Where a SMILES comes first, the peptide text is derived from it.
readout-kind: IC50

- CC(=O)N[C@@H](CC(C)C)C(=O)N[C@@H](CCC(=O)O)C(=O)N[C@@H](Cc1cnc[nH]1)C(=O)N[C@H](C=O)CC(=O)O (Ac-LEHD-aldehyde): 81.7 nM

---

- target-entity: Histone deacetylase 8 (Homo sapiens, UniProt Q9BY41)
readout-kind: IC50 (nM)

* CN(C)Cc1ccc(S(=O)(=O)n2ccc(/C=C/C(=O)NO)c2)cc1 | 877

---

- target-entity: Caspase-10 (Homo sapiens, UniProt Q92851)
- Sequence (Q92851 220-415 limits assumed): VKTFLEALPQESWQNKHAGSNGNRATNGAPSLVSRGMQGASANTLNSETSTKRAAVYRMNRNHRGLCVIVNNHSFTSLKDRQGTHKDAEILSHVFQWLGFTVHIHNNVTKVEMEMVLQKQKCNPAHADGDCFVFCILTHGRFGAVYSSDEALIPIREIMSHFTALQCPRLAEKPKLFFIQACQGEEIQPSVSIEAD
- Sequence (Q92851 416-521 limits assumed): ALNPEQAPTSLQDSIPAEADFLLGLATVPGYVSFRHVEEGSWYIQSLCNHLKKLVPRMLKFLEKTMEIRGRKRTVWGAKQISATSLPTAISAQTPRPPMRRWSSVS
- experiment: Selectivity interaction (Eurofins (enzymatic assay)) EUB0002201a CASP10
- Parameters: recommended concentration 1 uM
pIC50: −log10 of the molar value. Where a SMILES comes first, the peptide text is derived from it.
readout-kind: pIC50

• CC(=O)N[C@@H](CC(C)C)C(=O)N[C@@H](CCC(=O)O)C(=O)N[C@H](C(=O)N[C@H](C=O)CC(=O)O)C(C)C (Ac-LEVD-aldehyde) = 6.85

---

- target-entity: Caspase-8 (Homo sapiens)
- experiment: Selectivity interaction (Enzymatic assay) EUB0002178aAD CASP8
- Set-up: recommended concentration 1 uM
Where a SMILES comes first, the peptide text is derived from it.
readout-kind: IC50

• CC[C@H](C)[C@H](NC(=O)[C@H](CCC(=O)O)NC(=O)[C@@H](NC(C)=O)C(C)C)C(=O)N[C@H](C=O)CC(=O)O (Ac-VEID-aldehyde) = 26 nM

---

- target-entity: Histone deacetylase 8 (Homo sapiens, UniProt Q9BY41)
- Sequence (Q9BY41 whole entry): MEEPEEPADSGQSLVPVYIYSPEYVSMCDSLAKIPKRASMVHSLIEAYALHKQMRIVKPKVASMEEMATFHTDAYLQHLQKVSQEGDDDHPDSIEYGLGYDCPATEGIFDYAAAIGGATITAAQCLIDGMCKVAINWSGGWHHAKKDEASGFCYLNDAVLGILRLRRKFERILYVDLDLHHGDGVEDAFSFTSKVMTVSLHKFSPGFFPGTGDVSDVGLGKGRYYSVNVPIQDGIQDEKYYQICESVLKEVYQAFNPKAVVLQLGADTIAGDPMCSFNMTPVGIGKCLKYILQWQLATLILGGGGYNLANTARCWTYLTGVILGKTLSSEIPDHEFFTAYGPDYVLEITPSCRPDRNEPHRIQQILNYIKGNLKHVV
pIC50: −log10 of the molar value.
readout-kind: pIC50

- CN(C)Cc1ccc(S(=O)(=O)n2ccc(/C=C/C(=O)NO)c2)cc1: 6.06

---

- target-entity: UniProt Q92851
- experiment: Selectivity interaction (Enzymatic assay) EUB0002198aAD CASP10
- Parameters: recommended concentration 1 uM
Where a SMILES comes first, the peptide text is derived from it.
readout-kind: IC50 (nM)

• CC(=O)N[C@@H](CC(C)C)C(=O)N[C@@H](CCC(=O)O)C(=O)N[C@@H](Cc1cnc[nH]1)C(=O)N[C@H](C=O)CC(=O)O (Ac-LEHD-aldehyde) = 240

---

- target-entity: Caspase-7 (Homo sapiens, UniProt P55210)
- experiment: Selectivity interaction (Enzymatic assay) EUB0002178aAD CASP7
- Parameters: recommended concentration 1 uM
pIC50: −log10 of the molar value. Where a SMILES comes first, the peptide text is derived from it.
readout-kind: pIC50

• CC[C@H](C)[C@H](NC(=O)[C@H](CCC(=O)O)NC(=O)[C@@H](NC(C)=O)C(C)C)C(=O)N[C@H](C=O)CC(=O)O (Ac-VEID-aldehyde) = 6.79
